Measured T/C of individual entries
tested on: L1210 leukemia ip in BDF1 mice, survival T/C; experiment: NCI In Vivo Anticancer Drug Screen. Data for tumor model L1210 Leukemia (intraperitoneal) in B6D2F1 (BDF1) mice; conditions: endpoint: mean survival time; dose: 400.0 mg/kg/injection; schedule: Q01DX009 (ip); vehicle: saline; higher = longer survival
Toxic doses and inconclusive results are not listed.

// worked examples, T/C included
Query: Please indicate recorded T/C of COc1ccccc1[P+](CO)(c1ccccc1OC)c1ccccc1OC measured with L1210 leukemia ip in BDF1 mice, survival T/C.
Response: 93 % of control

Query: Give T/C for CCOCCCSP(SCCCOCC)SCCCOCC tested on L1210 leukemia ip in BDF1 mice, survival T/C.
Response: 104 % of control

Query: Tell me T/C of CC(=O)OCCC(CCOC(C)=O)=C1N=C(c2ccccc2)OC1=O when tested on L1210 leukemia ip in BDF1 mice, survival T/C.
Response: 92 % of control

Query: Provide the reported T/C (system: L1210 leukemia ip in BDF1 mice, survival T/C) for CCCCC(C#N)(C(=O)OCC)C(C)(C)C (stereo unspecified)
Response: 101 % of control

Query: Under L1210 leukemia ip in BDF1 mice, survival T/C, report T/C for O=C(O)C1C2c3ccccc3C(C1C(=O)O)[n+]1ccccc12 (stereo unspecified)
Response: 94 % of control

Next:
Query: Given N=C(N[N+](=O)[O-])N(CCC(=O)O)N=O , report its T/C on L1210 leukemia ip in BDF1 mice, survival T/C.
Response: 100 % of control

---

tested on: L1210 leukemia ip in BDF1 mice, survival T/C; experiment: NCI In Vivo Anticancer Drug Screen. Data for tumor model L1210 Leukemia (intraperitoneal) in B6D2F1 (BDF1) mice; settings: endpoint: mean survival time; dose: 25.0 mg/kg/injection; schedule: Q04DX003 (ip); vehicle: saline; higher = longer survival
Toxic doses and inconclusive results are not listed.
Measurement Label: T/C

Query: Give a short answer stating reported T/C for CCCSC1=C(N2CC2)C(=O)C(SCCC)=C(N2CC2)C1=O .
Response: 97 % of control

Query: Return reported T/C. Input compound: CCN(CC)CCCOC(=O)C(CCC(C)C)c1ccccc1C (configuration not stated)
Response: 100 % of control

Query: Using the record for CC(C)NNC(=O)C(N)CCC(=O)O (configuration not stated) , state its measured T/C.
Response: 117 % of control

Query: Identify the reported T/C for the following entry. Nc1ncnc2c1ncn2C1OC(CO)C(O)C1O (configuration not stated)
Response: 105 % of control

Next:
Query: # return recorded T/C for entry CCCNC1=C(N2CC2)C(=O)C(NCCC)=C(N2CC2)C1=O
Response: 113 % of control

Query: Tell me measured T/C for COc1cc2c(cc1OC)C13CCN4CC5=CCOC6CCN2C1C6C5CC43 (configuration not stated) please.
Response: 101 % of control

---

Form field: T/C (one value per entry).
tested on: L1210 leukemia ip in BDF1 mice, survival T/C; test: NCI In Vivo Anticancer Drug Screen. Data for tumor model L1210 Leukemia (intraperitoneal) in B6D2F1 (BDF1) mice; details: endpoint: mean survival time; dose: 100.0 mg/kg/injection; schedule: Q01DX009 (ip); vehicle: Klucel (hydroxypropylcellulose) (HPC); higher = longer survival
Toxic doses and inconclusive results are not listed.

Query: Consider the compound CS(=O)(=O)OCC1CCCO1 (stereo unspecified) . State its measured T/C.
Response: 98 % of control

Query: Give T/C for O=C(O)c1c(Br)c(Br)c(Br)c(Br)c1C(=O)Nc1cc([N+](=O)[O-])ccc1O
Response: 106 % of control

Query: Name the recorded T/C of the compound listed here: CN(C)c1ccc(/C=C/c2nc3ccccc3o2)cc1
Response: 95 % of control

Query: Give recorded T/C. CCCCCC(Br)C(Br)CC(Br)C(Br)CCCCCCCC(=O)O (stereo unspecified)
Response: 95 % of control

Query: Identify measured T/C corresponding to COC(=O)c1ccc([N+](=O)[O-])o1
Response: 93 % of control

Next, consider the following compound.
Query: Quick one: give measured T/C for COc1ccc(OC)c(NC(=O)Nc2c(C)n(C)n(-c3ccccc3)c2=O)c1
Response: 93 % of control

---

system: L1210 leukemia ip in BDF1 mice, survival T/C; assay: NCI In Vivo Anticancer Drug Screen. Data for tumor model L1210 Leukemia (intraperitoneal) in B6D2F1 (BDF1) mice; details: endpoint: mean survival time; dose: 50.0 mg/kg/injection; schedule: Q04DX002 (ip); vehicle: Klucel (hydroxypropylcellulose) (HPC); higher = longer survival
Toxic doses and inconclusive results are not listed.
# T/C per entry

Worked cases, T/C given:
Query: Quickly give me recorded T/C for CN(C)C(=S)SSSC(=S)N(C)C
Response: 94 % of control

Query: Give reported T/C value for O=Cc1c(Cl)[nH]c2ccccc12
Response: 90 % of control

Query: Indicate its recorded T/C; the compound in question is CC(C)(C)C(=O)C(Br)Br
Response: 96 % of control

Query: State, in one line, measured T/C of CC(CC12CC3CC(CC(C3)C1)C2)NN (stereo unspecified)
Response: 86 % of control

Query: Supply T/C value. Item: O=[N+]([O-])c1cc(Cl)cc(Cl)c1O
Response: 94 % of control

Next:
Query: Give reported T/C value for O=C1C(O)=C(c2ccccc2)C(=O)C(O)=C1c1ccccc1
Response: 98 % of control

---

tested on: L1210 leukemia ip in BDF1 mice, survival T/C; test: NCI In Vivo Anticancer Drug Screen. Data for tumor model L1210 Leukemia (intraperitoneal) in B6D2F1 (BDF1) mice; conditions: endpoint: mean survival time; dose: 100.0 mg/kg/injection; schedule: Q04DX003 (ip); vehicle: Klucel (hydroxypropylcellulose) (HPC); higher = longer survival
Toxic doses and inconclusive results are not listed.
Reported values of T/C for individual entries

Query: Provide T/C value for the following compound: O=C(Nc1ccccn1)Nc1ccccn1
Response: 98 % of control

Query: State, in one line, measured T/C of CCOC(=O)CN1C(C)C1C(C)C (configuration not stated)
Response: 114 % of control

Query: Identify the reported T/C for the following entry. CC(C)(C)NC/C(=C\c1ccccc1)C(=O)c1ccccc1
Response: 94 % of control

Query: Give me measured T/C, please, for this compound: O=C1CC(N2CC2)C(=O)N1c1ccccc1 (configuration not stated)
Response: 105 % of control

More entries:
Query: Specify reported T/C for the compound shown: CCOC(=O)N1CCC(=C(C#N)c2ccccc2)CC1
Response: 92 % of control

Query: Report T/C for CCCCOP(=O)(/C=C(\C#N)C(=O)OCC)OCCCC
Response: 87 % of control

Query: Specify reported T/C for the compound shown: COc1ccc(OC)c(/C=C(/C)[N+](=O)[O-])c1
Response: 97 % of control

---

Listed here are compounds together with their documented T/C.
system: L1210 leukemia ip in BDF1 mice, survival T/C; assay: NCI In Vivo Anticancer Drug Screen. Data for tumor model L1210 Leukemia (intraperitoneal) in B6D2F1 (BDF1) mice; conditions: endpoint: mean survival time; dose: 400.0 mg/kg/injection; schedule: Q04DX003 (ip); vehicle: Klucel (hydroxypropylcellulose) (HPC); higher = longer survival
Toxic doses and inconclusive results are not listed.

Query: Supply reported T/C belonging to this compound: COC(=O)c1ccccc1NC(=O)NCCBr
Response: 110 % of control

Query: Give me measured T/C, please, for this compound: CCOc1ncc([N+](=O)[O-])cc1[N+](=O)[O-]
Response: 90 % of control

Query: Assign T/C to the following record: CC(C)Cc1ccccc1
Response: 96 % of control

Query: Write down T/C measured for item C(=NCCc1ccccc1)c1ccccc1B1OB(c2ccccc2C=NCCc2ccccc2)OB(c2ccccc2C=NCCc2ccccc2)O1
Response: 94 % of control

Next compound, T/C to be filled in.
Query: Provide T/C value for the following compound: O=[N+]([O-])c1ccc(CC(O)c2ccccc2Cl)cc1 (centres undefined)
Response: 97 % of control

---

Form field: T/C (one value per entry).
system: L1210 leukemia ip in BDF1 mice, survival T/C; experiment: NCI In Vivo Anticancer Drug Screen. Data for tumor model L1210 Leukemia (intraperitoneal) in B6D2F1 (BDF1) mice; settings: endpoint: mean survival time; dose: 50.0 mg/kg/injection; schedule: Q01DX001 (ip); vehicle: Klucel (hydroxypropylcellulose) (HPC); higher = longer survival
Toxic doses and inconclusive results are not listed.

Solved entries:
Query: Fill in T/C for record Cc1cc(C)cc(Cc2ccc3ccccc3c2)c1
Response: 109 % of control

Query: Supply measured T/C of C[n+]1c2ccccc2c(-c2c3ccccc3[n+](C)c3ccccc23)c2ccccc21 in your reply.
Response: 98 % of control

Query: Recall and state the measured T/C for Cc1cccc([N+](=O)[O-])c1-c1c(C)cccc1[N+](=O)[O-] .
Response: 102 % of control

# input for lookup
Query: // fetch T/C given entry CC1(C)N=C(N)N=C(N)N1c1cccc(OCCCc2ccccc2)c1
Response: 86 % of control
